Tested on: biotinyl-Ile-oxazolone
Experiment: self-aminoacylation, catalytic enhancement (BIO) (fold over background); higher = more active; k-Seq, kA / k0A0; sequences stand for … in GGGAAUGGAUCCACAUCUACGAAUUC…UUCACUGCAGACUUGACGAAGCUG
Fewer inactive variants are shown than the library holds.
Is self-aminoacylation at least 3? Then fulfilled. If not, not fulfilled.

Q: Determine whether this sequence has self-aminoacylation no lower than 3: GUACUUCAAACAAUCGGUCUG [Fam1A.1 aminoacylation ribozyme variant]
A: not fulfilled

Q: Determine whether this sequence has self-aminoacylation no lower than 3: AUUACCCUGGUCAUCAAGUUA [Fam2.1 aminoacylation ribozyme variant]
A: not fulfilled

Q: Determine whether this sequence has self-aminoacylation no lower than 3: CUUCUUCAAACAACCGGUCUG [Fam1A.1 aminoacylation ribozyme variant]
A: not fulfilled

Q: Determine whether this sequence has self-aminoacylation no lower than 3: AUUUCCCUGGUUAUCGAGUGA [Fam2.1 aminoacylation ribozyme variant]
A: fulfilled

Q: Determine whether this sequence has self-aminoacylation no lower than 3: CUUACCCUGGUCAUCGAUUGA [Fam2.1 aminoacylation ribozyme variant]
A: not fulfilled

Q: Determine whether this sequence has self-aminoacylation no lower than 3: AUUACCCCGGUCAUCGGGUGA [Fam2.1 aminoacylation ribozyme variant]
A: fulfilled

Q: Determine whether this sequence has self-aminoacylation no lower than 3: CUACCUCAACCAAUCGGUCUG [Fam1A.1 aminoacylation ribozyme variant]
A: not fulfilled

Q: Determine whether this sequence has self-aminoacylation no lower than 3: AUUCCCCUAUGUCAUCGGGUG [Fam2.2 aminoacylation ribozyme variant]
A: fulfilled

Q: Determine whether this sequence has self-aminoacylation no lower than 3: GUUACCCUGGUCACCGAGUGA [Fam2.1 aminoacylation ribozyme variant]
A: fulfilled

Q: Determine whether this sequence has self-aminoacylation no lower than 3: AUUCACCUAUGUCAUCGGGGG [Fam2.2 aminoacylation ribozyme variant]
A: not fulfilled

Q: Determine whether this sequence has self-aminoacylation no lower than 3: AUCACCGUGGUCAUCGAGUGA [Fam2.1 aminoacylation ribozyme variant]
A: fulfilled

Q: Determine whether this sequence has self-aminoacylation no lower than 3: CUAUAUCAAACAAUCGGUCUG [Fam1A.1 aminoacylation ribozyme variant]
A: not fulfilled

Q: Determine whether this sequence has self-aminoacylation no lower than 3: CUACUGCCAACAAUCGGUCUG [Fam1A.1 aminoacylation ribozyme variant]
A: not fulfilled

Q: Determine whether this sequence has self-aminoacylation no lower than 3: CUUCACCUAGCUCAUCGGGUG [Fam2.2 aminoacylation ribozyme variant]
A: not fulfilled

Q: Determine whether this sequence has self-aminoacylation no lower than 3: AAUCAUCUAGGUCAUCGGGUG [Fam2.2 aminoacylation ribozyme variant]
A: fulfilled

Q: Determine whether this sequence has self-aminoacylation no lower than 3: AAGUUUGUUUAUAGUCGCAAG [Fam3.1 aminoacylation ribozyme variant]
A: not fulfilled

Q: Determine whether this sequence has self-aminoacylation no lower than 3: GUUAUCCUGGUCAUCGAGUGA [Fam2.1 aminoacylation ribozyme variant]
A: fulfilled

Q: Determine whether this sequence has self-aminoacylation no lower than 3: AUUACCCUGUUCAUAGAGUGA [Fam2.1 aminoacylation ribozyme variant]
A: fulfilled

Q: Determine whether this sequence has self-aminoacylation no lower than 3: CCACACUUCAAGCAAUCCGUA [Fam1B.1 aminoacylation ribozyme variant]
A: not fulfilled

Q: Determine whether this sequence has self-aminoacylation no lower than 3: AUACUUCAAAUAAUCGGUCUG [Fam1A.1 aminoacylation ribozyme variant]
A: not fulfilled

Q: Determine whether this sequence has self-aminoacylation no lower than 3: AUUCACUUAUGUCAUCGGGUG [Fam2.2 aminoacylation ribozyme variant]
A: fulfilled

Q: Determine whether this sequence has self-aminoacylation no lower than 3: AAGUUUGCUAAUAGUCGCAUC [Fam3.1 aminoacylation ribozyme variant]
A: not fulfilled

Q: Determine whether this sequence has self-aminoacylation no lower than 3: AUUCAUCUAUGUCAUCGGGUG [Fam2.2 aminoacylation ribozyme variant]
A: fulfilled

Q: Determine whether this sequence has self-aminoacylation no lower than 3: AUUACCCUGGUCCUAGAGUGA [Fam2.1 aminoacylation ribozyme variant]
A: fulfilled

Q: Determine whether this sequence has self-aminoacylation no lower than 3: AAGUUUGCUAAUAGUCGCGAG [Fam3.1 aminoacylation ribozyme variant]
A: not fulfilled

Q: Determine whether this sequence has self-aminoacylation no lower than 3: AAUUUUGCUAGUAGUCGCAAG [Fam3.1 aminoacylation ribozyme variant]
A: not fulfilled

Q: Determine whether this sequence has self-aminoacylation no lower than 3: AUUCGCCUAGGCCAUCGGGUG [Fam2.2 aminoacylation ribozyme variant]
A: fulfilled

Q: Determine whether this sequence has self-aminoacylation no lower than 3: CAACUUCAAUCAAUCGGUCUG [Fam1A.1 aminoacylation ribozyme variant]
A: not fulfilled

Q: Determine whether this sequence has self-aminoacylation no lower than 3: CCACACUUCAAGCAAGUGGUC [Fam1B.1 aminoacylation ribozyme variant]
A: not fulfilled

Q: Determine whether this sequence has self-aminoacylation no lower than 3: AAGAUUGCUAAUAGUCGCAAG [Fam3.1 aminoacylation ribozyme variant]
A: not fulfilled

Q: Determine whether this sequence has self-aminoacylation no lower than 3: AGUCACCUGGGUCAUCGGGUG [Fam2.2 aminoacylation ribozyme variant]
A: fulfilled

Q: Determine whether this sequence has self-aminoacylation no lower than 3: AUUACCAUGGUCAGCGAGUGA [Fam2.1 aminoacylation ribozyme variant]
A: fulfilled

Q: Determine whether this sequence has self-aminoacylation no lower than 3: AUUACUCUGGUCAUGGAGUGA [Fam2.1 aminoacylation ribozyme variant]
A: not fulfilled

Q: Determine whether this sequence has self-aminoacylation no lower than 3: CUUCACCUAAGUCAUCGGGUG [Fam2.2 aminoacylation ribozyme variant]
A: fulfilled

----------
Test system: biotinyl-Met-oxazolone
Assay: self-aminoacylation, catalytic enhancement (BMO) (fold over background); higher = more active; k-Seq, kA / k0A0; sequences stand for … in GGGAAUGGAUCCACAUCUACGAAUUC…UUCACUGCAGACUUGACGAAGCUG
Fewer inactive variants are shown than the library holds.
For each entry below, report its self-aminoacylation value.
Give the figure only, with no unit attached.

Q: Can you look up self-aminoacylation on biotinyl-Met-oxazolone for CUACUUCAAAGAAUCGGUCGG [Fam1A.1 aminoacylation ribozyme variant] ?
A: 0.844

Q: Can you look up self-aminoacylation on biotinyl-Met-oxazolone for CUAAUUCAAACAAUCGGUCCG [Fam1A.1 aminoacylation ribozyme variant] ?
A: 0.575

Q: Can you look up self-aminoacylation on biotinyl-Met-oxazolone for CCACGCUUCAAGCAAUCGGUU [Fam1B.1 aminoacylation ribozyme variant] ?
A: 1.44

Q: Can you look up self-aminoacylation on biotinyl-Met-oxazolone for UUUCACCUAGGUAAUCGGGUG [Fam2.2 aminoacylation ribozyme variant] ?
A: 2.66

Q: Can you look up self-aminoacylation on biotinyl-Met-oxazolone for CCACAAUUCAAGCAAUCGGAC [Fam1B.1 aminoacylation ribozyme variant] ?
A: 0.783

Q: Can you look up self-aminoacylation on biotinyl-Met-oxazolone for UAGUUUGCUAAUAGUCGCAGG [Fam3.1 aminoacylation ribozyme variant] ?
A: 1.2

Q: Can you look up self-aminoacylation on biotinyl-Met-oxazolone for AUUUACCUAGGUCAUUGGGUG [Fam2.2 aminoacylation ribozyme variant] ?
A: 3.54

Q: Can you look up self-aminoacylation on biotinyl-Met-oxazolone for AUCCACCUAGGUCAUCGGCUG [Fam2.2 aminoacylation ribozyme variant] ?
A: 1.72

Q: Can you look up self-aminoacylation on biotinyl-Met-oxazolone for AUUCACCCAGGUCAUCCGGUG [Fam2.2 aminoacylation ribozyme variant] ?
A: 8.64

Q: Can you look up self-aminoacylation on biotinyl-Met-oxazolone for AUUAUCCUGGUCAUCGAGUGA [Fam2.1 aminoacylation ribozyme variant] ?
A: 13

Q: Can you look up self-aminoacylation on biotinyl-Met-oxazolone for CCACACUUCAAGCUAUAGGUC [Fam1B.1 aminoacylation ribozyme variant] ?
A: 0.513

Q: Can you look up self-aminoacylation on biotinyl-Met-oxazolone for CCACUCUUCAAGCAAUCGGUU [Fam1B.1 aminoacylation ribozyme variant] ?
A: 1.53

Q: Can you look up self-aminoacylation on biotinyl-Met-oxazolone for AUUACCCUGGUCAUAGAGUUA [Fam2.1 aminoacylation ribozyme variant] ?
A: 1.39

Q: Can you look up self-aminoacylation on biotinyl-Met-oxazolone for CUACUUCAGACAAACGGUCUG [Fam1A.1 aminoacylation ribozyme variant] ?
A: 0.962

Q: Can you look up self-aminoacylation on biotinyl-Met-oxazolone for CUAUUUCAAACAAUCGGUCGG [Fam1A.1 aminoacylation ribozyme variant] ?
A: 0.793

Q: Can you look up self-aminoacylation on biotinyl-Met-oxazolone for GUACUUCAAACAAUCGAUCUG [Fam1A.1 aminoacylation ribozyme variant] ?
A: 0.863

Q: Can you look up self-aminoacylation on biotinyl-Met-oxazolone for CCACACCUGAAGCAAUCGGUC [Fam1B.1 aminoacylation ribozyme variant] ?
A: 0.903

Q: Can you look up self-aminoacylation on biotinyl-Met-oxazolone for AUUACCCUGGCCAUCGAGUGU [Fam2.1 aminoacylation ribozyme variant] ?
A: 3.06

Q: Can you look up self-aminoacylation on biotinyl-Met-oxazolone for AGGUUUGCUAAUAGUCGCAGG [Fam3.1 aminoacylation ribozyme variant] ?
A: 2.21

Q: Can you look up self-aminoacylation on biotinyl-Met-oxazolone for AUUCACAUAGGUCAUCGGGAG [Fam2.2 aminoacylation ribozyme variant] ?
A: 1.13

Q: Can you look up self-aminoacylation on biotinyl-Met-oxazolone for CUACUUCAAACAUUGGGUCUG [Fam1A.1 aminoacylation ribozyme variant] ?
A: 0.944

Q: Can you look up self-aminoacylation on biotinyl-Met-oxazolone for CUACUUCAAACGAGCGGUCUG [Fam1A.1 aminoacylation ribozyme variant] ?
A: 0.943

Q: Can you look up self-aminoacylation on biotinyl-Met-oxazolone for CCACACUACAAGGAAUCGGUC [Fam1B.1 aminoacylation ribozyme variant] ?
A: 0.84

Q: Can you look up self-aminoacylation on biotinyl-Met-oxazolone for AAGUUUGCGAAUAGUCGAAAG [Fam3.1 aminoacylation ribozyme variant] ?
A: 1.17

Q: Can you look up self-aminoacylation on biotinyl-Met-oxazolone for AAGUUUGCUACUUGUCGCAAG [Fam3.1 aminoacylation ribozyme variant] ?
A: 0.928

Q: Can you look up self-aminoacylation on biotinyl-Met-oxazolone for AACUUUGCAAAUAGUCGCAAG [Fam3.1 aminoacylation ribozyme variant] ?
A: 1.96

Q: Can you look up self-aminoacylation on biotinyl-Met-oxazolone for CUUCACCUAGCUCAUCGGGUG [Fam2.2 aminoacylation ribozyme variant] ?
A: 2.21

Q: Can you look up self-aminoacylation on biotinyl-Met-oxazolone for AUUCACCUAGGUAAUCCGGUG [Fam2.2 aminoacylation ribozyme variant] ?
A: 3.77

Q: Can you look up self-aminoacylation on biotinyl-Met-oxazolone for CCACUUCAAACAAUCGGACUG [Fam1A.1 aminoacylation ribozyme variant] ?
A: 1.03

Q: Can you look up self-aminoacylation on biotinyl-Met-oxazolone for AAGUUUGUUUAUAGUCGCAAG [Fam3.1 aminoacylation ribozyme variant] ?
A: 1.34

Q: Can you look up self-aminoacylation on biotinyl-Met-oxazolone for CUACUUCAAUCGAUCGGUCUG [Fam1A.1 aminoacylation ribozyme variant] ?
A: 0.707

Q: Can you look up self-aminoacylation on biotinyl-Met-oxazolone for CGACACUUCAAGCAUUCGGUC [Fam1B.1 aminoacylation ribozyme variant] ?
A: 1.64

Q: Can you look up self-aminoacylation on biotinyl-Met-oxazolone for AUUUCCCGGGUCAUCGAGUGA [Fam2.1 aminoacylation ribozyme variant] ?
A: 5.43

Q: Can you look up self-aminoacylation on biotinyl-Met-oxazolone for CCACACUACAAGCAAUCGGUG [Fam1B.1 aminoacylation ribozyme variant] ?
A: 4.92

Q: Can you look up self-aminoacylation on biotinyl-Met-oxazolone for CUAUUUCAAACAAUAGGUCUG [Fam1A.1 aminoacylation ribozyme variant] ?
A: 1.11

FYI, the data here is from the supplement of paper PMC9233669.
